# assayText: Decomposition of prodrugs in mouse plasma in vitro (HPLC of released propofol or other substituted phenol)
# Assay type: in vitro ADME
# condition: 37° C., 10 min
measuredParameter: Decomposition rates of prodrugs (%)
Please give a number only; it is taken to be in %.

• CC(C)c1cccc(C(C)C)c1OC(=O)COC(=O)CN(C)C = 90
• CC(C)c1cccc(C(C)C)c1OC(=O)COC(=O)[C@@H](C)N(C)C.Cl = 100
• CNCC(=O)OCC(=O)Oc1c(C(C)C)cccc1C(C)C = 100

Measured Decomposition rates of prodrugs, CC(C)c1cccc(C(C)C)c1OC(=O)COC(=O)[C@H](C)N : 100

Item: CC(C)C[C@@H](N)C(=O)OCC(=O)Oc1c(C(C)C)cccc1C(C)C.Cl | Decomposition rates of prodrugs: 100

Just so you know, measured Decomposition rates of prodrugs for CC(C)c1cccc(C(C)C)c1OC(=O)COC(=O)CN1CCOCC1 [Compound 22] came out at 89

Source of measurements: patent US12358863B2
